Molecular target: T1, human c-Met antigen (Sino Biological) (human, UniProt P08581 25-932)
T1 construct: Bought antigen used as the analyte in SPR; also called hepatocyte growth factor receptor; HGFR
T1 sequence (P08581 25-932 limits assumed): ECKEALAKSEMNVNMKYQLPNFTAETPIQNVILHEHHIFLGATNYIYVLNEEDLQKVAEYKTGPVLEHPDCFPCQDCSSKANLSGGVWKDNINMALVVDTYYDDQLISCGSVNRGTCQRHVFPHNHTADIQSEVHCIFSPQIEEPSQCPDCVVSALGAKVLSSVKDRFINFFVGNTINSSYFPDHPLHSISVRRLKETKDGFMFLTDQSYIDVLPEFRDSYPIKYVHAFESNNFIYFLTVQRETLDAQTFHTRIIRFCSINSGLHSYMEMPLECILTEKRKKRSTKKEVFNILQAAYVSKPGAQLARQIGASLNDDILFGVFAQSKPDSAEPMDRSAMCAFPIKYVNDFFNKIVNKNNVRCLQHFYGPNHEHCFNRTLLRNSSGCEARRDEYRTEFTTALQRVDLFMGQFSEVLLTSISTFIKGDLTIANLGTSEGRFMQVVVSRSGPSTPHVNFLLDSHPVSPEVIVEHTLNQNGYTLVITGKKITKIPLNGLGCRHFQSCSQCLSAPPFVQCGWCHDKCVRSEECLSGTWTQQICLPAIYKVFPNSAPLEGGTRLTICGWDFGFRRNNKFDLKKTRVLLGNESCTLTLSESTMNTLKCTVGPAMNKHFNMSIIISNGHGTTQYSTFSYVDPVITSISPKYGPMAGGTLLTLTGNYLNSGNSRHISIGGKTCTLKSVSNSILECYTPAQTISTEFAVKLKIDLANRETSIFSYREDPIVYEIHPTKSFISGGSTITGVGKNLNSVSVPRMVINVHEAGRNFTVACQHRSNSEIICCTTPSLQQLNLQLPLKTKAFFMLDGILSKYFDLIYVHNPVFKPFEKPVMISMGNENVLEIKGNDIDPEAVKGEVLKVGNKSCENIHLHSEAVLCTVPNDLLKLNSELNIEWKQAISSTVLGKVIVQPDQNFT
Test: SPR (BIACORE T200), antibody captured on protein A CM5 chip, human c-Met as analyte
Consider the following binders and their measured Relative KD to VH0/Vk0 readings.
Number only, please.

Here's what some known entries look like.
- BINDER: "VH6/Vk0 (antibody, V domains shown, CDR-grafted variant of the IgG1-based anti-cMet antibody 1E4; also called anti-cMet candidate antibody VH6/Vk0) VH: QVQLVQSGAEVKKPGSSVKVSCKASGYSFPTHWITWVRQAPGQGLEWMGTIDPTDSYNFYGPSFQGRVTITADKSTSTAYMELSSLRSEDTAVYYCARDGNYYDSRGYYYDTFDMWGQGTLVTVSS VL: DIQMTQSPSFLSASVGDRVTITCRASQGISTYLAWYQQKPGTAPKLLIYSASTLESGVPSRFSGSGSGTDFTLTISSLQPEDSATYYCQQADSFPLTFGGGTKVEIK"
  METRIC: "Relative KD to VH0/Vk0"
  RESULT NUMBER: 0.8
- BINDER: "VH5/Vk0 (antibody, V domains shown, CDR-grafted variant of the IgG1-based anti-cMet antibody 1E4; also called anti-cMet candidate antibody VH5/Vk0) VH: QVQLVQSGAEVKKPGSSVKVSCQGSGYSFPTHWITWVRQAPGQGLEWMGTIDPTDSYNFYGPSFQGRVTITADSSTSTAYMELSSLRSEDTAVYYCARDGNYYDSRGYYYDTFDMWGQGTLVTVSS VL: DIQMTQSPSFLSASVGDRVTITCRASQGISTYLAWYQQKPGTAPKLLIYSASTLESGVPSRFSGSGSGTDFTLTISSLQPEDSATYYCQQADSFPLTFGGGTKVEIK"
  METRIC: "Relative KD to VH0/Vk0"
  RESULT NUMBER: 0.68

Now look at this one.
What measured Relative KD to VH0/Vk0 goes with VH2/Vk0 (antibody, V domains shown) VH: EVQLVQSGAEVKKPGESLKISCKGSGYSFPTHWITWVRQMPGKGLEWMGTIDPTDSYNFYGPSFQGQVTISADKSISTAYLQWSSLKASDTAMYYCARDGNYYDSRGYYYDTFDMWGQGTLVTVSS VL: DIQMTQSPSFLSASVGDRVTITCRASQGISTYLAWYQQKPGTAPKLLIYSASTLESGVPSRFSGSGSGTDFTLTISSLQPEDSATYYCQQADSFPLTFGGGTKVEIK ? 1.03
